What protein stability index was measured for each of the following?
B1: PCDHGA10 (parent)
chain: FGIEIEVTDINDNAPKFQAENLDV

- Variants of: B1
- assay explanation: protein stability index of a GFP-peptide fusion (GPS, HEK-293T) (PSI 1-6); higher = more stable;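 further: lentivirally expressed fusions sorted by FACS into six bins by GFP to DsRed ratio, PSI derived from sequencing read proportions per bin multiplied by bin number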
- condition summary: c terminus: a fixed tail appended

Input: Please report the measured protein stability index for FGIEIEVTDINDNKPKFQAENLDV [A14K]
Output: 3.1

Input: Please report the measured protein stability index for FGIEIEVTDINDNQPKFQAENLDV [A14Q]
Output: 3.58

Input: Please report the measured protein stability index for FGIEIEVTDINDNAPKFQAQNLDV [E20Q]
Output: 2.4

Input: Please report the measured protein stability index for FGIEIEVTDINDNAPKFQWENLDV [A19W]
Output: 1.59

Input: Please report the measured protein stability index for FGIMIEVTDINDNAPKFQAENLDV [E4M]
Output: 1.73

Input: Please report the measured protein stability index for FGIEIEVTDKNDNAPKFQAENLDV [I10K]
Output: 4.61

Input: Please report the measured protein stability index for FGIEIEKTDINDNAPKFQAENLDV [V7K]
Output: 4.21

Input: Please report the measured protein stability index for FGIEIVVTDINDNAPKFQAENLDV [E6V]
Output: 2.04

Input: Please report the measured protein stability index for FGIEIEVTDINDNAPKHQAENLDV [F17H]
Output: 4.28

Input: Please report the measured protein stability index for FGIEIEVTDINDNCPKFQAENLDV [A14C]
Output: 2.46

Input: Please report the measured protein stability index for FGIEIEVTTINDNAPKFQAENLDV [D9T]
Output: 1.96

Input: Please report the measured protein stability index for FGIEIEVTDINDNAPKVQAENLDV [F17V]
Output: 3.65

Input: Please report the measured protein stability index for FGIEIEVKDINDNAPKFQAENLDV [T8K]
Output: 3.33

Input: Please report the measured protein stability index for FGIEIEVTDITDNAPKFQAENLDV [N11T]
Output: 2.26

Input: Please report the measured protein stability index for FGIQIEVTDINDNAPKFQAENLDV [E4Q]
Output: 2.47

Input: Please report the measured protein stability index for FGWEIEVTDINDNAPKFQAENLDV [I3W]
Output: 3.62

Input: Please report the measured protein stability index for FYIEIEVTDINDNAPKFQAENLDV [G2Y]
Output: 3

Input: Please report the measured protein stability index for FGIEIEVTDIPDNAPKFQAENLDV [N11P]
Output: 2.73

Input: Please report the measured protein stability index for FGIEIEVTDINDNAPKFTAENLDV [Q18T]
Output: 2.77

Input: Please report the measured protein stability index for FGIEIEVQDINDNAPKFQAENLDV [T8Q]
Output: 2.78

Input: Please report the measured protein stability index for FGIEIEVTDINDNAPKFQAEVLDV [N21V]
Output: 2.33

Input: Please report the measured protein stability index for FGIEIEVTDINDNPPKFQAENLDV [A14P]
Output: 2.69

Source of measurements: the supplement of paper PMC10567573
